- System name: human TMEM16A (TMEM16Aabc variant) (Homo sapiens, UniProt Q5XXA6, DEL476-501, form not given)
- Sequence (Q5XXA6 with tags, fused parts or gaps DEL476-501): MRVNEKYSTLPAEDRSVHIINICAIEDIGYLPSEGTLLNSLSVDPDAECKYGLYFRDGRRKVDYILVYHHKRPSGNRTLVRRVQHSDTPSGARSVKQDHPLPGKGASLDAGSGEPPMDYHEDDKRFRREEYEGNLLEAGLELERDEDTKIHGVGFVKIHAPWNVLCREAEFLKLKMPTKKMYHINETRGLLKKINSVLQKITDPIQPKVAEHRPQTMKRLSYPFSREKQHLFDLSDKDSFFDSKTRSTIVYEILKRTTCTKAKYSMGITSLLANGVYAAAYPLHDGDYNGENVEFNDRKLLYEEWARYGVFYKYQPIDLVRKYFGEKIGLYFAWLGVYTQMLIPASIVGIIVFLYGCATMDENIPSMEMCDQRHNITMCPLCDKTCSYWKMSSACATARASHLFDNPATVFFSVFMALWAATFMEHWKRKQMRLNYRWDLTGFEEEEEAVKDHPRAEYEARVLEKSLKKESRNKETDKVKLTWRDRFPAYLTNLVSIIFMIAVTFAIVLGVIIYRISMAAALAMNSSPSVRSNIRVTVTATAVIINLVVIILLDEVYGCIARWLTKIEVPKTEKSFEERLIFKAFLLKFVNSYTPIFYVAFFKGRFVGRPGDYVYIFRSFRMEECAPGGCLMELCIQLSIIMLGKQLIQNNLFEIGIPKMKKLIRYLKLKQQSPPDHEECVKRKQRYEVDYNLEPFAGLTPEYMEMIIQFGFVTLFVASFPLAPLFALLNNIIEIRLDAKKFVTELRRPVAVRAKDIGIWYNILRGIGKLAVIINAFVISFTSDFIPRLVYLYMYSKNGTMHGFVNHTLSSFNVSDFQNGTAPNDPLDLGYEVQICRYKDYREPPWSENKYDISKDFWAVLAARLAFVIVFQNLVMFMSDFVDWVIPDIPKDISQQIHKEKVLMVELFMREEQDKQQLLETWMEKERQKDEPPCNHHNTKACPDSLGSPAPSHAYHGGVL
- Assay remarks: Automated whole-cell patch clamp (Qpatch) TMEM16A potentiator assay in FRT cells stably expressing human TMEM16A
- Type: cell-based
- Conditions: 3.33 μM solution of test compound; percentage increase of baseline TMEM16A current
Measurement type: % Potentiation @ 3.33 μM Avg
Please state the value followed by its unit.

Sample records with % Potentiation @ 3.33 μM Avg:
Compound | Result
CC(C)(C)NC(=O)c1cccc(NC(=O)Cc2c[nH]c3ccc(F)cc23)c1 | 116%
O=C(Cc1cc(Cl)ccc1O)Nc1ccnc(C(=O)NC23CC(C2)C3)c1 | 230%
CC(C)(C)NC(=O)c1cc(NC(=O)Nc2ccccc2O)ccn1 | 55%

# per-item lookup of % Potentiation @ 3.33 μM Avg; items listed below
1. CC(C)(C)NCc1cc(O)c(CC(=O)Nc2ccnc(C(=O)NC(C)(C)C)c2)cc1Cl
2. O=C(Cc1cc(F)ccc1O)Nc1ccnc(C(=O)NC23CCC(F)(C2)C3)c1
3. O=C(Cc1cc(Cl)ccc1O)Nc1ccnc(C(=O)N[C@H]2CCCC[C@H]2CO)c1
4. C#CC(C)(C)NC(=O)c1cc(NC(=O)CC2CCOc3ccccc32)ccn1 (stereo not shown)
5. COC(=O)c1ccc(O)c(CC(=O)Nc2cccc(C(=O)NC(C)(C)C)c2)c1
6. C#CC(C)(C)NC(=O)c1cc(NC(=O)Cc2ccc(C(F)(F)F)cc2O)ccn1
7. N#CC1(NC(=O)c2cccc(NC(=O)Cc3cc(Cl)ccc3O)c2)CCOCC1

# output
52%
122%
300%
60%
118%
238%
130%

Each compound below has a reported value. Please supply its % Potentiation @ 3.33 μM Avg.
1. CC(C)(C)NC(=O)c1cc(NC(=O)NCc2ccccc2O)ccn1
2. C#CC1(NC(=O)c2cc(NC(=O)Cc3cc(Cl)ccc3O)ccn2)CCCC1
3. CC(C)(C)NC(=O)c1cc(NC(=O)Cc2c(O)c(Br)cc(Cl)c2Br)ccn1 [Example 3.11b]
4. CC(C)(C)C(C)(C)NC(=O)c1cccc(NC(=O)Cc2cc(Cl)ccc2O)c1
5. N#CC1(NC(=O)c2cc(NC(=O)Cc3ccc4ncccc4c3)ccn2)CCOCC1
6. CC(C)(C)NC(=O)c1cc(NC(=O)Cc2ccc(F)cc2)ccn1
7. C[C@](C#N)(CO)NC(=O)c1cc(NC(=O)Cc2cc(Cl)ccc2O)ccn1 (single isomer, unassigned) [Example 46b]
8. CC(C)(C)NC(=O)c1cc(F)cc(NC(=O)Cc2cc(Cl)ccc2O)c1

# output
["73%", "110%", "168%", "153%", "68%", "94%", "215%", "405%"]

====

- System name: human TMEM16A (TMEM16Aabc variant) (Homo sapiens, UniProt Q5XXA6, DEL476-501, form not given)
- Assay remarks: Automated whole-cell patch clamp (Qpatch) TMEM16A potentiator assay in FRT cells stably expressing human TMEM16A
- Type: cell-based
- Conditions: 3.33 μM solution of test compound; percentage increase of baseline TMEM16A current
Answer each item with its documented % Potentiation @ 3.33 μM Avg.

Some solved cases for reference:
Molecule | % Potentiation @ 3.33 μM Avg
CC(C)(CN1CCOCC1)NC(=O)c1cc(NC(=O)Cc2cc(Cl)ccc2O)ccn1 [Example 32.6] | 153%
COCC(C)(CO)NC(=O)c1cc(NC(=O)Cc2cc(Cl)ccc2O)ccn1 (centres unmarked) [Example 73] | 196%

Batch request: % Potentiation @ 3.33 μM Avg per item, same order as input.
1. CC(C)(C)NC(=O)c1cc(NC(=O)NCc2ccc(O)cc2)ccn1 [Example 65.4]
2. CC(C)(C)NC(=O)c1cc(NC(=O)Cc2cc(C(C)(C)C)ccc2O)ccn1 [Example 10]
3. CCCC(C)(C)NC(=O)c1cccc(NC(=O)Cc2cc(Cl)ccc2O)c1 [Example 7.1]

# output
1: 10%; 2: 250%; 3: 241%

====

Kindly supply the reported EC50 values for the records listed here.
- System name: human TMEM16A (TMEM16Aabc variant) (Homo sapiens, UniProt Q5XXA6, DEL476-501, form not given)
- Assay remarks: Automated whole-cell patch clamp (Qpatch) TMEM16A potentiator assay in FRT cells stably expressing human TMEM16A
- Conditions: calculated EC50, Qpatch TMEM16A current at +70 mV
One number for each entry, in nM.

Examples with their reported EC50 follow.
Compound | Uom | Number
O=C(Cc1cc(Cl)ccc1O)Nc1ccnc(C(=O)NCc2ccccc2O)c1 [Example 32.5] | nM | 590
CC(C)(C#N)NC(=O)c1cc(NC(=O)Cc2ccc(Cl)c(O)c2)ccn1 [Example 92.1] | nM | 140
CC12CC(NC(=O)c3cc(NC(=O)Cc4ccccc4Cl)ccn3)(C1)C2 [Example 30.4] | nM | 750
N#CC1(NC(=O)c2cc(NC(=O)Cc3ccccc3Cl)ccn2)CCOCC1 [Example 23.15] | nM | 1190
C#CC(C)(C)NC(=O)c1cc(NC(=O)Cc2cc(F)ccc2O)ccn1 [Example 81.3] | nM | 40
CCC(C)(C)NC(=O)c1cc(NC(=O)Cc2cc(Cl)ccc2O)ccn1 [Example 9.2] | nM | 190
COC(=O)c1ccc(O)c(CC(=O)Nc2ccnc(C(=O)NC(C)(C)C)c2)c1 [Example 13] | nM | 1000
C#CC(C)(C)NC(=O)c1cc(NC(=O)Cc2c[nH]nc2C(F)(F)F)ccn1 [Example 5.36] | nM | 60
C#CC(C)(C)NC(=O)c1cc(NC(=O)Cc2ccc(C(C)(C)C)c(O)c2)ccn1 [Example 93.5] | nM | 20
COCC(C#N)(COC)NC(=O)c1cc(NC(=O)Cc2cc(Cl)ccc2O)ccn1 [Example 86] | nM | 350

# input Given the entry CC(C)(C)NC(=O)c1cc(NC(=O)Cc2cc(O)ccc2Cl)ccn1 [Example 3.16b] , report its measured EC50.
# output 170

====

- System name: human TMEM16A (TMEM16Aabc variant) (Homo sapiens, UniProt Q5XXA6, DEL476-501, form not given)
- Assay remarks: Automated whole-cell patch clamp (Qpatch) TMEM16A potentiator assay in FRT cells stably expressing human TMEM16A
- Format: cell-based
- Conditions: 3.33 μM solution of test compound; percentage increase of baseline TMEM16A current
For each of the compounds below, state its % Potentiation @ 3.33 μM Avg.
Reply with the number and its unit after it.

Example results:
Compound | % Potentiation @ 3.33 μM Avg
CC(C)(CCNS(C)(=O)=O)NC(=O)c1cc(NC(=O)Cc2cc(Cl)ccc2O)ccn1 [Example 50] | 65%
CC(C)(CCNC(=O)OC(C)(C)C)NC(=O)c1cc(NC(=O)Cc2cc(Cl)ccc2O)ccn1 [Example 1.8] | 300%

Would you mind listing % Potentiation @ 3.33 μM Avg for each of the following compounds?
1. Cn1nc(C(C)(C)C)cc1C(=O)Nc1ccnc(C(=O)NC(C)(C)C#N)c1 [Example 83.14]
2. CC(C)(C)OC(=O)N1C[C@@H]2[C@H](C1)[C@H]2NC(=O)c1cc(NC(=O)Cc2cc(Cl)ccc2O)ccn1 [Example 8.3]
3. C#CC(C)(C)NC(=O)c1cc(NC(=O)Cc2cc(C(F)(F)F)ccc2O)ccn1 [Example 78.2]

# output
1: 70%; 2: 238%; 3: 86%

====

- System name: human TMEM16A (TMEM16Aabc variant) (Homo sapiens, UniProt Q5XXA6, DEL476-501, form not given)
- Assay remarks: Automated whole-cell patch clamp (Qpatch) TMEM16A potentiator assay in FRT cells stably expressing human TMEM16A
- Conditions: calculated EC50, Qpatch TMEM16A current at +70 mV
Kindly supply the reported EC50 values for the records listed here.

Molecule | EC50
CC(C)(C)NC(=O)c1cc(NC(=O)Cc2cc(F)ccc2Cl)ccn1 [Example 40.1] | 870 nM
CC(C)(C)NC(=O)c1cccc(NC(=O)Cc2ccccc2O)c1 [Example 4.3] | 1530 nM
CC(C)(C)NC(=O)CC(C)(C)NC(=O)c1cc(NC(=O)Cc2cc(Cl)ccc2O)ccn1 [Example 49] | 680 nM

# input Returns the measured EC50 for the input molecule. Input: CC(NCC(F)(F)F)c1ccc(O)c(CC(=O)Nc2ccnc(C(=O)NC(C)(C)C)c2)c1 (stereo not shown) [Example 67]
# output 1100 nM

====

Give measured % Potentiation @ 3.33 μM Avg for each item. Keep answers brief.
- System name: human TMEM16A (TMEM16Aabc variant) (Homo sapiens, UniProt Q5XXA6, DEL476-501, form not given)
- Assay remarks: Automated whole-cell patch clamp (Qpatch) TMEM16A potentiator assay in FRT cells stably expressing human TMEM16A
- Assay type: cell-based
- Conditions: 3.33 μM solution of test compound; percentage increase of baseline TMEM16A current
Answers are plain numbers, in %.

Please review the following examples before continuing.
Compound | % Potentiation @ 3.33 μM Avg [%]
C#CC(C)(C)NC(=O)c1cc(NC(=O)Cc2cc(Cl)ccc2O)ccn1 | 199
CC(C)(C)c1ccc(CC(=O)Nc2ccnc(C(=O)N[C@H]3CCC[C@@H]3O)c2)cc1O | 220
N#CC1(NC(=O)c2cc(NC(=O)Cc3ccc(Cl)cc3)ccn2)CC1 | 93

// next entry
# input Given the entry CC(C)(C)NC(=O)c1cc(NC(=O)C2CCCCc3ccccc32)ccn1 (stereo not shown) , report its measured % Potentiation @ 3.33 μM Avg.
# output 110
